system: RH7777 rat hepatoma cells; assay: SRB cytotoxicity assay, RH7777 control cell line; format: cell-based; settings: Table 6; control cell line; read-out: IC50 RH7777
pIC50: −log10 of the molar value.
readout: pIC50

[[record]]
compound = "COc1ccc(CCNC(=O)CN2C(=O)CSC2c2ccccc2)c(OC)c1 (stereo not shown)"
assay_result = "< 4.00"


---

readout: melting point

[[record]]
compound = "CCCCCCCCCCCCCCCCCCNC(=O)[C@@H]1CSC(c2ccc([N+](=O)[O-])cc2)N1 (mixture of isomers)"
readout = "melting point"
assay_result = "115 °C"

[[record]]
compound = "CCCCCCCCCCCCCCCCCCNC(=O)[C@@H]1CSC(c2ccc(F)cc2)N1 (mixture of isomers)"
readout = "melting point"
assay_result = "65 °C"

[[record]]
compound = "CCCCCCCCCCCCCCCCCCNC(=O)[C@@H]1CSC(c2ccc(F)c(Br)c2)N1 (mixture of isomers)"
readout = "melting point"
assay_result = "100 °C"

[[record]]
compound = "CCCCCCCCCCCCCCCCCCNC(=O)[C@@H]1CSC(c2c[nH]c3ccccc23)N1 (mixture of isomers)"
readout = "melting point"
assay_result = "125 °C"

[[record]]
compound = "CCCCCCCCCCCCCCCCCCNC(=O)[C@@H]1CSC(c2cccnc2)N1 (mixture of isomers)"
readout = "melting point"
assay_result = "94 °C"

[[record]]
compound = "CCCCCCCCCCCCCCCCCCNC(=O)[C@@H]1CSC(c2ccccc2)N1S(C)(=O)=O (mixture of isomers)"
readout = "melting point"
assay_result = "55 °C"

[[record]]
compound = "CCCCCCCCCCCCCCCCCCNC(=O)[C@@H]1CSC(c2ccc(N(C)C)cc2)N1 (mixture of isomers)"
readout = "melting point"
assay_result = "75 °C"


---

test system: PC-3 human prostate cancer cells; assay: SRB cytotoxicity assay, PC-3; assay type: cell-based; conditions: Homo sapiens; Table 3; 96 h; read-out: IC50 PC-3
pIC50: −log10 of the molar value. Structures can show the parent of a compound that is named as a salt.
Label 1 (yes) when pIC50 is at or above 5; otherwise label 0 (no).

[[record]]
molecule = "CCCCCCCCCCCCCCCCCCNC(=O)[C@@H]1CSC(C2CCCCC2)N1 (mixture of isomers) [Compound 8]"
group = "0 (no)"

[[record]]
molecule = "CCCCCCCCCCCCCCCCCCNC(=O)[C@@H]1CSC(c2cc(OC)c(OC)c(OC)c2)N1 (mixture of isomers) [Compound 17-HCI, Hydrochloride]"
group = "1 (yes)"

[[record]]
molecule = "CCCCCCCCCCCCCCCCCCNC(=O)[C@@H]1CSC(Cc2ccccc2)N1 (mixture of isomers) [Compound 9]"
group = "0 (no)"

[[record]]
molecule = "CCCCCCCCCCCCCCCCCCNC(=O)[C@@H]1CSC(c2ccc(N(C)C)cc2)N1 (mixture of isomers) [Compound 13]"
group = "1 (yes)"

[[record]]
molecule = "CCCCCCCCCCCCCCCCCCNC(=O)[C@@H]1CSC(CCCCCCCCCCCC)N1 (mixture of isomers) [Compound 7]"
group = "0 (no)"


---

tested on: CaOv-3 human ovarian cancer cell line; experiment: SRB cytotoxicity assay, CaOv-3; type: cell-based; settings: Table 8
Counter-ions that a name gives are not always drawn.
readout: IC50 (µM)

[[record]]
molecule = "CCCCCCCCCCCCCCCCCCNC(=O)[C@@H]1CSC(c2ccc(OC)c(OC)c2)N1 (mixture of isomers) [Compound 16-HCI, Hydrochloride]"
target = "CaOv-3 human ovarian cancer cell line"
unit_info = "µM"
assay_result = 5.5

